B1: SPDEF (parent)
chain: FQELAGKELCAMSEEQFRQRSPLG

Variants of: B1
Assay: protein stability index of a GFP-peptide fusion (GPS, HEK-293T) (PSI 1-6); higher = more stable;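 further: lentivirally expressed fusions sorted by FACS into six bins by GFP to DsRed ratio, PSI derived from sequencing read proportions per bin multiplied by bin number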
Settings: c terminus: a fixed tail appended
Decision: protein stability index compared against 3; not below it gives T, below it gives F.

1) E3T = F
2) L9M = T
3) K7A = F
4) Q19K = F
5) E14P = F
6) E15Q = F
7) Q19C = F
8) E15R = F
9) S13H = F
10) Q19T = T
11) K7H = F
12) L4G = T
13) G6S = F
14) E3C = F
15) L9V = F
16) E14R = F
17) K7Y = F
18) Q19Y = F
